Can you tell me per cent of control for the items I'm about to list?
# Test system: ROCK2 (rat)
# reported conditions: compound 10.0 µM; accession and sequence are those of the human protein
Answers are plain numbers, in %.

CC(C)n1nc(-c2cc3cc(O)ccc3[nH]2)c2c(N)ncnc21 77
COC(=O)Nc1ccc(-c2nc(N3CCOCC3)c3cnn(C4CCN(C(=O)OC)CC4)c3n2)cc1 97
COc1ccc(-c2ccc3c(N4CCOCC4)nc(N4C[C@@H](C)O[C@@H](C)C4)nc3n2)cc1CO 86

Please look up its per cent of control: CCC(=O)N1CCN(c2ccc(-n3c(=O)ccc4cnc5ccc(-c6cnc7ccccc7c6)cc5c43)cc2C(F)(F)F)CC1
101

---

# assay target: CAMKK2 (human) (UniProt Q96RR4)
# Sequence (Q96RR4 whole entry, looked up): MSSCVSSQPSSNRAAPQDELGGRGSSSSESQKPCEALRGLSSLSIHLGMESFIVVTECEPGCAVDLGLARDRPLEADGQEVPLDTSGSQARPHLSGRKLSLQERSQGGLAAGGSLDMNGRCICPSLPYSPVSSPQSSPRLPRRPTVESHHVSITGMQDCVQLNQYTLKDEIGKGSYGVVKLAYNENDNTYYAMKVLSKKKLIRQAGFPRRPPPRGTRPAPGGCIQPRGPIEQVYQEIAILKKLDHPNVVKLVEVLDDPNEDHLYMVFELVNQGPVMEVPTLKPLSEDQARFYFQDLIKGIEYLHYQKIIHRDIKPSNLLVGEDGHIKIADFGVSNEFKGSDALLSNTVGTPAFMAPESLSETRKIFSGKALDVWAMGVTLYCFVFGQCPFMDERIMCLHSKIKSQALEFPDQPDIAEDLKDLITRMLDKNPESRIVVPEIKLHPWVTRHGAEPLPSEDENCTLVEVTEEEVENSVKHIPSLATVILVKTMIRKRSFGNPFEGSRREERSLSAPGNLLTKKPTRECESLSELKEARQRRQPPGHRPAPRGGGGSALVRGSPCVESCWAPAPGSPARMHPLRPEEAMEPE
# reported conditions: compound 10.0 µM
measured metric: per cent of control
Please provide the amount together with its unit, number first.

CC(C)n1nc(-c2cc3cc(O)ccc3[nH]2)c2c(N)ncnc21 30%
COC(=O)Nc1ccc(-c2nc(N3CCOCC3)c3cnn(C4CCN(C(=O)OC)CC4)c3n2)cc1 95%
CCC(=O)N1CCN(c2ccc(-n3c(=O)ccc4cnc5ccc(-c6cnc7ccccc7c6)cc5c43)cc2C(F)(F)F)CC1 81%

Shifting focus to the compound that follows.
// fetch CAMKK2 (human) (UniProt Q96RR4) per cent of control for COc1ccc(-c2ccc3c(N4CCOCC4)nc(N4C[C@@H](C)O[C@@H](C)C4)nc3n2)cc1CO
94%

---

Give measured kinase still bound, per cent of control for each item. Keep answers brief.
# assay target: DCLK1 (human) (UniProt O15075)
# experimental details: KINOMEscan competition binding
# reported conditions: compound 10.0 µM
Numbers only, in %.

// known answers, use as guide
COc1ccc(-c2ccc3c(N4CCOCC4)nc(N4C[C@@H](C)O[C@@H](C)C4)nc3n2)cc1CO 100
CCC(=O)N1CCN(c2ccc(-n3c(=O)ccc4cnc5ccc(-c6cnc7ccccc7c6)cc5c43)cc2C(F)(F)F)CC1 100
CC(C)n1nc(-c2cc3cc(O)ccc3[nH]2)c2c(N)ncnc21 70

Let us move to another entry and its kinase still bound, per cent of control.
Return reported kinase still bound, per cent of control; argument: COC(=O)Nc1ccc(-c2nc(N3CCOCC3)c3cnn(C4CCN(C(=O)OC)CC4)c3n2)cc1
93

---

# assay target: EPHA7 (human)
# experimental details: KINOMEscan competition binding
# reported conditions: compound 10.0 µM
Exercise: state measured kinase still bound, per cent of control for each of the compounds provided.
// return the numeric value with its unit appended

CC(C)n1nc(-c2cc3cc(O)ccc3[nH]2)c2c(N)ncnc21 61%
COc1ccc(-c2ccc3c(N4CCOCC4)nc(N4C[C@@H](C)O[C@@H](C)C4)nc3n2)cc1CO 86%
COC(=O)Nc1ccc(-c2nc(N3CCOCC3)c3cnn(C4CCN(C(=O)OC)CC4)c3n2)cc1 94%

Let us examine a further case.
// query kinase still bound, per cent of control value for entry CCC(=O)N1CCN(c2ccc(-n3c(=O)ccc4cnc5ccc(-c6cnc7ccccc7c6)cc5c43)cc2C(F)(F)F)CC1
98%

---

Task for the reader: assign each of the following compounds its reported kinase still bound, per cent of control.
# assay target: PDGFRB (human) (UniProt P09619)
# Sequence (P09619 whole entry, looked up): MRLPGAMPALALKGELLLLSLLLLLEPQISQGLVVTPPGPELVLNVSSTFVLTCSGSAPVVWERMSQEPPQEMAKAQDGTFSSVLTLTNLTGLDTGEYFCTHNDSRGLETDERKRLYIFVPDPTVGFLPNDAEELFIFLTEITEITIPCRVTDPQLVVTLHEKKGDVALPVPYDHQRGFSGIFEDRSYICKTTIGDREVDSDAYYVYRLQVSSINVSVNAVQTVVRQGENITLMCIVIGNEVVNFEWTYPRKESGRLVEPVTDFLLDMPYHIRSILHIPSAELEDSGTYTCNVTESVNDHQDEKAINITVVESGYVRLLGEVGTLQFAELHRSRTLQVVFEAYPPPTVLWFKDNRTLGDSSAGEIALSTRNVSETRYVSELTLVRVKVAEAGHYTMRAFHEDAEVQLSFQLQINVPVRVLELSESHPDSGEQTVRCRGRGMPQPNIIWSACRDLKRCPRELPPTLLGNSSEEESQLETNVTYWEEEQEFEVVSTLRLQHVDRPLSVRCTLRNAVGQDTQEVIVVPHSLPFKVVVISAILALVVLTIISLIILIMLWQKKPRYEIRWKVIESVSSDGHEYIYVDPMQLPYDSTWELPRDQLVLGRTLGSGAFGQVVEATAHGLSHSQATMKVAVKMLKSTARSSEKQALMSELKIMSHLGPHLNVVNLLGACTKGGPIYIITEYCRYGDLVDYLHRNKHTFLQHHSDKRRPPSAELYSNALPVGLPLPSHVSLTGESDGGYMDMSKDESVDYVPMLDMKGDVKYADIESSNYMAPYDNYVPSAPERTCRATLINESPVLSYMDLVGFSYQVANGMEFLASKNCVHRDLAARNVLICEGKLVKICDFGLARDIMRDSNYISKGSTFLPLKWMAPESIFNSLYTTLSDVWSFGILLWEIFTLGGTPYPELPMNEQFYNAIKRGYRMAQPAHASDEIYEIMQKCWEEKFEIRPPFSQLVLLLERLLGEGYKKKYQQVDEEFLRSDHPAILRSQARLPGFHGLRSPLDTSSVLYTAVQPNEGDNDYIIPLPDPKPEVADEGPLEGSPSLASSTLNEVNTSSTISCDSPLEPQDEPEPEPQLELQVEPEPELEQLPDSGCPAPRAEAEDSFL
# experimental details: KINOMEscan competition binding
# reported conditions: compound 10.0 µM
Answers are plain numbers, in %.

CC(C)n1nc(-c2cc3cc(O)ccc3[nH]2)c2c(N)ncnc21 0
COc1ccc(-c2ccc3c(N4CCOCC4)nc(N4C[C@@H](C)O[C@@H](C)C4)nc3n2)cc1CO 95
COC(=O)Nc1ccc(-c2nc(N3CCOCC3)c3cnn(C4CCN(C(=O)OC)CC4)c3n2)cc1 100

kinase still bound, per cent of control of CCC(=O)N1CCN(c2ccc(-n3c(=O)ccc4cnc5ccc(-c6cnc7ccccc7c6)cc5c43)cc2C(F)(F)F)CC1 on PDGFRB (human) (UniProt P09619)?
24

---

Can you tell me per cent of control for the items I'm about to list?
# assay target: NEK6 (human) (UniProt Q9HC98)
# Sequence (Q9HC98 whole entry, looked up): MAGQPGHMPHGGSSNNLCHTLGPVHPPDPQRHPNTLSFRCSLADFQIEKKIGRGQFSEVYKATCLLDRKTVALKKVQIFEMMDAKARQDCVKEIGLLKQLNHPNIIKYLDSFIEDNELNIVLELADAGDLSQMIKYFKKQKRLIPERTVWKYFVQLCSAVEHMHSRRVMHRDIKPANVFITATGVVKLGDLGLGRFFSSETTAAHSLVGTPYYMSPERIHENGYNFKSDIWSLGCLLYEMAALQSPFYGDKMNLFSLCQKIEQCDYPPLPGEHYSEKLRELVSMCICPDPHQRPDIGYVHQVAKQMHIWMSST
# reported conditions: compound 1.0 µM
Numbers only, in %.

Need per cent of control for each of these compounds.
1. COc1ccc(-c2ccc3c(N4CCOCC4)nc(N4C[C@@H](C)O[C@@H](C)C4)nc3n2)cc1CO
2. COC(=O)Nc1ccc(-c2nc(N3CCOCC3)c3cnn(C4CCN(C(=O)OC)CC4)c3n2)cc1
3. CCC(=O)N1CCN(c2ccc(-n3c(=O)ccc4cnc5ccc(-c6cnc7ccccc7c6)cc5c43)cc2C(F)(F)F)CC1
4. CC(C)n1nc(-c2cc3cc(O)ccc3[nH]2)c2c(N)ncnc21

[74, 96, 100, 99]

---

Record form. Attribute: per cent of control. Fill in for each entry.
# assay target: PAK7 (human) (UniProt Q9P286)
# Sequence (Q9P286 whole entry, looked up): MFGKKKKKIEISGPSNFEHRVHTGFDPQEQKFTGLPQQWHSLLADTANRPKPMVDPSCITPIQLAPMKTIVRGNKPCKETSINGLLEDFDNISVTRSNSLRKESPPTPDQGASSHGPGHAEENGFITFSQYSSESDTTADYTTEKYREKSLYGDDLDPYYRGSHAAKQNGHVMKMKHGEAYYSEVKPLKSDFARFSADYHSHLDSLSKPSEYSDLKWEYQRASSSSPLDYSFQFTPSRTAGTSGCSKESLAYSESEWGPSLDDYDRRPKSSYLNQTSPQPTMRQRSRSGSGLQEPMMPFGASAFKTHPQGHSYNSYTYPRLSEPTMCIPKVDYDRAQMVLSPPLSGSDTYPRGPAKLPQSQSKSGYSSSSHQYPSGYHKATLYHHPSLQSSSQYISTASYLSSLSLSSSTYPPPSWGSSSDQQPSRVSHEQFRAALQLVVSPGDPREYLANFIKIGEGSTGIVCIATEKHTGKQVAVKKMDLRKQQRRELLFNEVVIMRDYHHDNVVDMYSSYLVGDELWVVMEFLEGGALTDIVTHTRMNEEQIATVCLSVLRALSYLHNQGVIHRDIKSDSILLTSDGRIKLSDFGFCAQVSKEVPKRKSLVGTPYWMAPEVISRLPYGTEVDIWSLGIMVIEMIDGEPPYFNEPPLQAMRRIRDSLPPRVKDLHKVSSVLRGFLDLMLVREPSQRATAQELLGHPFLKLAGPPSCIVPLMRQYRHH
# reported conditions: compound 10.0 µM
One number for each entry, in %.

Previously resolved entries follow.
CCC(=O)N1CCN(c2ccc(-n3c(=O)ccc4cnc5ccc(-c6cnc7ccccc7c6)cc5c43)cc2C(F)(F)F)CC1 61
COC(=O)Nc1ccc(-c2nc(N3CCOCC3)c3cnn(C4CCN(C(=O)OC)CC4)c3n2)cc1 87
CC(C)n1nc(-c2cc3cc(O)ccc3[nH]2)c2c(N)ncnc21 34

Now turn to the next compound.
Entry COc1ccc(-c2ccc3c(N4CCOCC4)nc(N4C[C@@H](C)O[C@@H](C)C4)nc3n2)cc1CO has what per cent of control?
81

---

# assay target: ERN1 (human) (UniProt O75460)
# Sequence (O75460 whole entry, looked up): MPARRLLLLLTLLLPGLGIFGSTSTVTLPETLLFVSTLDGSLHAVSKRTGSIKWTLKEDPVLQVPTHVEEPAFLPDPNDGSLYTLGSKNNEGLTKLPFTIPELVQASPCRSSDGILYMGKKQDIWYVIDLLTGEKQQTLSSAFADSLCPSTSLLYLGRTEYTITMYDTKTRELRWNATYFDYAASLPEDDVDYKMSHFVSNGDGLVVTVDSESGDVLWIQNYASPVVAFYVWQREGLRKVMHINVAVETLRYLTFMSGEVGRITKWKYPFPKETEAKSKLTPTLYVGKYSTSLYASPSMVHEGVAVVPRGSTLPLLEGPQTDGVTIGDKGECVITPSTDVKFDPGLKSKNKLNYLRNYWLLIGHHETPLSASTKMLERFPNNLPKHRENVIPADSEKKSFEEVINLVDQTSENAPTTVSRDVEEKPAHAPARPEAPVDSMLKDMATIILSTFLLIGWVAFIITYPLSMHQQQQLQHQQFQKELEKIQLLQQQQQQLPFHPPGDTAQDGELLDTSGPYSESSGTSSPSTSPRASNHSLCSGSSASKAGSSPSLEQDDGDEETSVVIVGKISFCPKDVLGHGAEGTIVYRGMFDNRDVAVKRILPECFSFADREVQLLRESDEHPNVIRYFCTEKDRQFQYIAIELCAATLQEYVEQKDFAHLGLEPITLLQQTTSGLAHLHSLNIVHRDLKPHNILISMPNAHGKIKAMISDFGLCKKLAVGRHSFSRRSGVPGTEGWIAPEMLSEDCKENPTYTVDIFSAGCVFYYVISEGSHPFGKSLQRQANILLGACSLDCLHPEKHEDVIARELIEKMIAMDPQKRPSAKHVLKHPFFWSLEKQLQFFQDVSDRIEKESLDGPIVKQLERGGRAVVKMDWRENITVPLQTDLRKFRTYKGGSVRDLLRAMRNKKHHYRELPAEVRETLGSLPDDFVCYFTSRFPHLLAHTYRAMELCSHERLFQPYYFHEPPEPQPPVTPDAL
# experimental details: KINOMEscan competition binding
# reported conditions: compound 10.0 µM
Consider the following molecules; for each one, report its kinase still bound, per cent of control.
Answers are plain numbers, in %.

Below, 3 molecules whose answers are already recorded.
COC(=O)Nc1ccc(-c2nc(N3CCOCC3)c3cnn(C4CCN(C(=O)OC)CC4)c3n2)cc1 100
COc1ccc(-c2ccc3c(N4CCOCC4)nc(N4C[C@@H](C)O[C@@H](C)C4)nc3n2)cc1CO 89
CCC(=O)N1CCN(c2ccc(-n3c(=O)ccc4cnc5ccc(-c6cnc7ccccc7c6)cc5c43)cc2C(F)(F)F)CC1 100

Let's switch to this molecule now.
Reported kinase still bound, per cent of control, molecule CC(C)n1nc(-c2cc3cc(O)ccc3[nH]2)c2c(N)ncnc21 : ____
31

---

# assay target: UniProt P49137
# Sequence (P49137 whole entry, looked up): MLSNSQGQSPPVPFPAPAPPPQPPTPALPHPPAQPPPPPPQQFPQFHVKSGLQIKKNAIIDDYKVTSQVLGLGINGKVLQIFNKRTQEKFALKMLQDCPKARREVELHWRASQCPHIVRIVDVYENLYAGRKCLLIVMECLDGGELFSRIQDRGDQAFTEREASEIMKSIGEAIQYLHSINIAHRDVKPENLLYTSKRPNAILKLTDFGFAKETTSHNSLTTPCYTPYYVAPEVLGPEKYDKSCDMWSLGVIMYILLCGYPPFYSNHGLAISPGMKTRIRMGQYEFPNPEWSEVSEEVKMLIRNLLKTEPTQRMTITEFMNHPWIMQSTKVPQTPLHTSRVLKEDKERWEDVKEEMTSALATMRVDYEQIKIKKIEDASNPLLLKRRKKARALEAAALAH
# experimental details: KINOMEscan competition binding
# reported conditions: compound 10.0 µM
measured metric: kinase still bound, per cent of control (%)
Give bare numbers, in %.

CCC(=O)N1CCN(c2ccc(-n3c(=O)ccc4cnc5ccc(-c6cnc7ccccc7c6)cc5c43)cc2C(F)(F)F)CC1 100
COc1ccc(-c2ccc3c(N4CCOCC4)nc(N4C[C@@H](C)O[C@@H](C)C4)nc3n2)cc1CO 92
CC(C)n1nc(-c2cc3cc(O)ccc3[nH]2)c2c(N)ncnc21 100

Next up:
Requested read-out: kinase still bound, per cent of control. Entry: COC(=O)Nc1ccc(-c2nc(N3CCOCC3)c3cnn(C4CCN(C(=O)OC)CC4)c3n2)cc1
100

---

# assay target: HIPK2 (human) (UniProt Q9H2X6)
# reported conditions: compound 1.0 µM
Exercise: for every item that follows, state its recorded per cent of control.
One number for each entry, in %.

CCC(=O)N1CCN(c2ccc(-n3c(=O)ccc4cnc5ccc(-c6cnc7ccccc7c6)cc5c43)cc2C(F)(F)F)CC1 96
CC(C)n1nc(-c2cc3cc(O)ccc3[nH]2)c2c(N)ncnc21 26
COc1ccc(-c2ccc3c(N4CCOCC4)nc(N4C[C@@H](C)O[C@@H](C)C4)nc3n2)cc1CO 89

// next item, per cent of control requested
Record request: per cent of control value, item COC(=O)Nc1ccc(-c2nc(N3CCOCC3)c3cnn(C4CCN(C(=O)OC)CC4)c3n2)cc1
95

---

# assay target: TEK (human) (UniProt Q02763)
# experimental details: KINOMEscan competition binding
# reported conditions: compound 10.0 µM
Assignment: determine reported kinase still bound, per cent of control for the given molecules.
Give bare numbers, in %.

COC(=O)Nc1ccc(-c2nc(N3CCOCC3)c3cnn(C4CCN(C(=O)OC)CC4)c3n2)cc1 100
COc1ccc(-c2ccc3c(N4CCOCC4)nc(N4C[C@@H](C)O[C@@H](C)C4)nc3n2)cc1CO 71
CC(C)n1nc(-c2cc3cc(O)ccc3[nH]2)c2c(N)ncnc21 21

Lab note: next molecule to report on.
For the molecule shown here, CCC(=O)N1CCN(c2ccc(-n3c(=O)ccc4cnc5ccc(-c6cnc7ccccc7c6)cc5c43)cc2C(F)(F)F)CC1 , give the reported kinase still bound, per cent of control.
19

---

# assay target: CSNK1D (human) (UniProt P48730)
# Sequence (P48730 whole entry, looked up): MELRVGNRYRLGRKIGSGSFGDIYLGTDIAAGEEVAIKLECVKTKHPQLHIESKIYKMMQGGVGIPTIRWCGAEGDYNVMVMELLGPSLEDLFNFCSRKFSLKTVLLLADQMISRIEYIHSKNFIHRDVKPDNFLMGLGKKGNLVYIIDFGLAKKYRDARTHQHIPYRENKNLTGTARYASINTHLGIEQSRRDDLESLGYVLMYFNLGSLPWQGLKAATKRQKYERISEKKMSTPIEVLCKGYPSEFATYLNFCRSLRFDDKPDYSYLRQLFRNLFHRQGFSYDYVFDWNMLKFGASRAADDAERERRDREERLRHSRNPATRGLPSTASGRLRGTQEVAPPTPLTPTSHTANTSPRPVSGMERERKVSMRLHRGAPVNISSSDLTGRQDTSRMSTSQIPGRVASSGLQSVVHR
# reported conditions: compound 1.0 µM
Task for the reader: assign each of the following molecules its reported per cent of control.
Answers are plain numbers, in %.

CCC(=O)N1CCN(c2ccc(-n3c(=O)ccc4cnc5ccc(-c6cnc7ccccc7c6)cc5c43)cc2C(F)(F)F)CC1 93
CC(C)n1nc(-c2cc3cc(O)ccc3[nH]2)c2c(N)ncnc21 50
COC(=O)Nc1ccc(-c2nc(N3CCOCC3)c3cnn(C4CCN(C(=O)OC)CC4)c3n2)cc1 90

Here is another molecule to look at.
What measured per cent of control goes with COc1ccc(-c2ccc3c(N4CCOCC4)nc(N4C[C@@H](C)O[C@@H](C)C4)nc3n2)cc1CO ?
112
